Assay: Pharmacokinetic evaluation in plasma after IV and PO administration
Assay type: in vivo
Conditions: mouse, female Balb/c mice, IV 2 mg/kg
Protocol: Experimental Embodiment 3: Pharmacokinetic Evaluation […] Female Balb/c mice of 18 to 20 grams were selected, and the solution of the test compound was orally administered at a dose of 2 or 10 mg/kg. […] The drug concentration was analyzed by LC-MS/MS, and the pharmacokinetic parameters were calculated using Phoenix WinNonlin software (Pharsight Corporation, USA).
Below is a list of entries, each paired with its recorded half-life value.
READOUT_TYPE: half-life (h)

| COMPOUND | MEASURED_VALUE |
| --- | --- |
| CNC(=O)c1cccc(-c2ccc3c(N4CCOC[C@@H]4C)nc(N4CCOC5(CC5)C4)nc3n2)c1 | 1.65 |
| CNC(=O)c1cccc(-c2ccc3c(N4CCOC[C@@H]4C)nc(N4CCOC5(CCC5)C4)nc3n2)c1 | 1.47 |
| CNC(=O)c1cccc(-c2ccc3c(N4CCOC[C@@H]4C)nc(N4CCOC[C@@H]4C)nc3n2)c1 [AZD2014, reference compound] | 1.05 |
| C[C@H]1COCCN1c1nc(N2CCOC3(CC3)C2)nc2nc(-c3cccc(C(N)=O)c3)ccc12 | 1.1 |

---

// reported AUC(0-t) for each item listed
experiment: Pharmacokinetic evaluation in plasma after IV and PO administration; format: in vivo; details: mouse, female Balb/c mice, PO 10 mg/kg
READOUT_TYPE: AUC(0-t) (µM·h)

| COMPOUND | READOUT_TYPE | MEASURED_VALUE |
| --- | --- | --- |
| C[C@H]1COCCN1c1nc(N2CCOC3(CC3)C2)nc2nc(-c3cccc(C(N)=O)c3)ccc12 [Embodiment 51] | AUC(0-t) | 41.9 |
| CNC(=O)c1cccc(-c2ccc3c(N4CCOC[C@@H]4C)nc(N4CCOC[C@@H]4C)nc3n2)c1 [AZD2014, reference compound] | AUC(0-t) | 41.4 |
| CNC(=O)c1cccc(-c2ccc3c(N4CCOC[C@@H]4C)nc(N4CCOC5(CCC5)C4)nc3n2)c1 [Embodiment 23] | AUC(0-t) | 60.1 |
| CNC(=O)c1cccc(-c2ccc3c(N4CCOC[C@@H]4C)nc(N4CCOC5(CC5)C4)nc3n2)c1 [Embodiment 1] | AUC(0-t) | 35 |

---

experiment: Pharmacokinetic evaluation in plasma after IV and PO administration; format: in vivo; settings: mouse, female Balb/c mice, IV 1 mg/kg

| COMPOUND | C0 (µM) |
| --- | --- |
| CNC(=O)c1cc(-c2ccc3c(N4CCOC[C@@H]4C)nc(N4CCOC5(CC5)C4)nc3n2)ccc1OC | 9.7 |
| C[C@H]1COC2(CCC2)CN1c1nc(N2CCOC[C@@H]2C)c2ccc(-c3cccc(C(N)=O)c3)nc2n1 | 2.49 |
| CNC(=O)c1cccc(-c2ccc3c(N4CCOC[C@@H]4C)nc(N4CCOC[C@@H]4C)nc3n2)c1 [AZD2014, reference compound] | 4.79 |

---

Listed below: Tlast values for each entry.
assay: Pharmacokinetic evaluation in plasma after IV and PO administration; assay type: in vivo; settings: female Balb/c mice, IV 2 mg/kg

| COMPOUND | UNITS_OF_MEASURE | Tlast |
| --- | --- | --- |
| CNC(=O)c1cccc(-c2ccc3c(N4CCOC[C@@H]4C)nc(N4CCOC5(CC5)C4)nc3n2)c1 | h | 12 |
| C[C@H]1COCCN1c1nc(N2CCOC3(CC3)C2)nc2nc(-c3cccc(C(N)=O)c3)ccc12 | h | 12.0 |
| CNC(=O)c1cccc(-c2ccc3c(N4CCOC[C@@H]4C)nc(N4CCOC[C@@H]4C)nc3n2)c1 [AZD2014, reference compound] | h | 8.00 |
| CNC(=O)c1cccc(-c2ccc3c(N4CCOC[C@@H]4C)nc(N4CCOC5(CCC5)C4)nc3n2)c1 | h | 12.0 |
